Measured values drawn from the supplement of paper PMC11424490 for this set.

Test system: NCI-H358
Test: combination cScore with adagrasib (Bliss gap around IC50) (%PoC); higher = stronger additive effect
Consider the following molecules; for each one, report its combination cScore with adagrasib.
Numbers only.

[
  {
    "MOLECULE": "C#Cc1cccc(Nc2ncnc3cc(OCCOC)c(OCCOC)cc23)c1 [Erlotinib] + C=C(F)C(=O)N1CCN(c2nc(OC[C@@H]3CCCN3C)nc3c2CCN(c2cccc4cccc(Cl)c24)C3)C[C@@H]1CC#N [adagrasib]",
    "STUDY_TARGET": "NCI-H358",
    "combination cScore with adagrasib": 10
  },
  {
    "MOLECULE": "O=C(c1cc(Cc2n[nH]c(=O)c3ccccc23)ccc1F)N1CCN(C(=O)C2CC2)CC1 [Olaparib] + C=C(F)C(=O)N1CCN(c2nc(OC[C@@H]3CCCN3C)nc3c2CCN(c2cccc4cccc(Cl)c24)C3)C[C@@H]1CC#N [adagrasib]",
    "STUDY_TARGET": "NCI-H358",
    "combination cScore with adagrasib": 1.38
  },
  {
    "MOLECULE": "CCc1nc(N)nc(N)c1-c1ccc(Cl)cc1 [Pyrimethamine] + C=C(F)C(=O)N1CCN(c2nc(OC[C@@H]3CCCN3C)nc3c2CCN(c2cccc4cccc(Cl)c24)C3)C[C@@H]1CC#N [adagrasib]",
    "STUDY_TARGET": "NCI-H358",
    "combination cScore with adagrasib": -2.05
  }
]

In: Reported combination cScore with adagrasib for Cc1c(CN2CCC(Nc3ncnc4sc(CC(F)(F)F)cc34)CC2)ccc2[nH]c(C#N)cc12 [MI-463] + C=C(F)C(=O)N1CCN(c2nc(OC[C@@H]3CCCN3C)nc3c2CCN(c2cccc4cccc(Cl)c24)C3)C[C@@H]1CC#N [adagrasib] : what is it?
Out: 5.31

###

Exercise: for every item that follows, state its recorded combination cScore with adagrasib.
Test system: NCI-H2122
Assay: combination cScore with adagrasib (Bliss gap around IC50) (%PoC); higher = stronger additive effect
One number for each entry.

[
  {
    "COMPOUND": "CC(C)(C(=O)NCC(F)(F)C(F)(F)F)C(=O)N[C@@H]1C(=O)Nc2ccccc2-c2ccccc21 + C=C(F)C(=O)N1CCN(c2nc(OC[C@@H]3CCCN3C)nc3c2CCN(c2cccc4cccc(Cl)c24)C3)C[C@@H]1CC#N",
    "STUDY_TARGET": "NCI-H2122",
    "combination cScore with adagrasib": 6.57
  },
  {
    "COMPOUND": "CO[C@@]12[C@H](COC(N)=O)C3=C(C(=O)C(C)=C(N)C3=O)N1C[C@@H]1N[C@@H]12 [Mitomycin C] + C=C(F)C(=O)N1CCN(c2nc(OC[C@@H]3CCCN3C)nc3c2CCN(c2cccc4cccc(Cl)c24)C3)C[C@@H]1CC#N",
    "STUDY_TARGET": "NCI-H2122",
    "combination cScore with adagrasib": 0.77
  },
  {
    "COMPOUND": "CCc1cnn2c(NCc3ccc[n+]([O-])c3)cc(N3CCCC[C@H]3CCO)nc12 + C=C(F)C(=O)N1CCN(c2nc(OC[C@@H]3CCCN3C)nc3c2CCN(c2cccc4cccc(Cl)c24)C3)C[C@@H]1CC#N",
    "STUDY_TARGET": "NCI-H2122",
    "combination cScore with adagrasib": -0.08
  }
]

Please find the next compound below.
In: Which combination cScore with adagrasib value belongs to C=C(c1ccc(C(=O)O)cc1)c1cc2c(cc1C)C(C)(C)CCC2(C)C [Bexarotene] + C=C(F)C(=O)N1CCN(c2nc(OC[C@@H]3CCCN3C)nc3c2CCN(c2cccc4cccc(Cl)c24)C3)C[C@@H]1CC#N ?
Out: -4.01
